Give inhibition for every item shown.
System: Hepatitis C virus NS3 helicase
Assay: HCV NS3 helicase inhibitors, primary screen, biochemical, fluorescence polarization, LOPAC1280 library (AID 687035)
Conditions: Purified HCV NS3 helicase, Cy5-dT15 ssDNA binding fluorescence polarization; active compounds read high; concentration not given here
Calls of active or inactive are those of the source. Cut-off read from the data, not from the text of the source: active = inhibition above about 37%; inactive = the rest.

// known answers, use as guide
> print(dat)
                                molecule                     target.desc          value
1                         N[C@H]1CONC1=O  Hepatitis C virus NS3 helicase  0% (inactive)
2         O=C1c2ccccc2-c2n[nH]c3cccc1c23  Hepatitis C virus NS3 helicase  1% (inactive)
3  Cc1ccc([N+](=O)[O-])cc1S(=O)(=O)N(C)C  Hepatitis C virus NS3 helicase  0% (inactive)

Quick request: inhibition for each listed item, please.
1. CC(C)(C)NCC(O)COc1cccc2[nH]c(=O)[nH]c12 (configuration not stated)
2. CC(C)Cc1ccc([C@H](C)C(=O)O)cc1
3. CC(=O)c1ccc(S(=O)(=O)NC(=O)NC2CCCCC2)cc1

[reply]
["-3% (inactive)", "-6% (inactive)", "-2% (inactive)"]

[ask] Return inhibition for the following molecule: "CN(C(=O)CCCOc1ccc2[nH]c(=O)ccc2c1)C1CCCCC1"
[reply] -1% (inactive)

====

System: R275C/beta4
Assay: modulators of BK channel variants, profiling panel, selectivity assay, cell-based, U2OS BacMam, thallium flux, beta subunits (AID 1259406);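 note: initial slope of Thallos dye fluorescence rise after thallium is added; log ratio against the mean of 0.3% DMSO vehicle wells on the same plate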
Details: at 30 µM
Active and inactive are the calls of the source.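 How the source made its calls: active means thallium flux through the channel raised or lowered by more than 3 SD from vehicle-only wells, actives on both sides; inactive means the rest.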
Returns: one label drawn from active, inactive

# count of solved cases: 5
> print(dat)
                                   compound  target.desc  group.label
1  NC(Cc1cc(I)c(Oc2ccc(O)c(I)c2)c(I)c1)C(=O)O (stereo unspecified)  R275C/beta4       active
2         CN1CCN2c3ncccc3Cc3ccccc3[C@@H]2C1  R275C/beta4     inactive
3  O=S(=O)(Nc1ccccc1SCc1ccc2nonc2c1)c1cccs1  R275C/beta4     inactive
4  COc1cccc(C=NNC(=O)C2CCCN(C(=S)NNC3CC4C=CC3C4)CC2)c1O (stereo unspecified)  R275C/beta4     inactive
5  O=C(Nc1ccc(OC(F)(F)F)cc1)OC1CN(C(c2ccccc2)c2ccccc2)C1  R275C/beta4       active

[ask] What did this assay record as the result for "Nc1ccc(Cl)cc1-c1nc2ccccc2[nH]1" ?
[reply] inactive

[ask] What did this assay record as the result for "CS(=O)(=O)NNc1c(Cl)cc(Cl)cc1Cl" ?
[reply] inactive

[ask] What did this assay record as the result for "CN1CCN(CC(=O)Nc2ccccc2Oc2ccccc2)CC1" ?
[reply] inactive

[ask] What did this assay record as the result for "Cc1ccccc1C=C1N=C(c2ccccc2)OC1=O" ?
[reply] inactive

[ask] What did this assay record as the result for "Cc1cnc(C(=O)NCCc2ccc(S(=O)(=O)NC(=O)NC3CCCCC3)cc2)cn1" ?
[reply] inactive

[ask] What did this assay record as the result for "O=C(c1ccccc1)c1ccc2c(c1)Cc1ccccc1-2" ?
[reply] inactive

====

Assay: Cy5 fluorescence quenching or enhancement artefacts, artefact control for HCV NS3 helicase inhibitor project, biochemical, LOPAC1280 (AID 687037)
Settings: Cy5-DNA-NS3h complex fluorescence interference counterscreen
Give fluorescence ratio (interference) for every item shown.
Numbers only.

// known answers, use as guide
> print(dat)
                                   compound                      readout.label  value
1     O=c1cc(N2CCOCC2)oc2c(-c3ccccc3)cccc12  fluorescence ratio (interference)      1
2  CC1CCN(CC[C@H]2CCCN2S(=O)(=O)c2cccc(O)c2)CC1  fluorescence ratio (interference)      1
3  CC#CCOC(=O)c1c(C)nc2sc3c(c2c1N)CCC(O)C3 (stereo unspecified)  fluorescence ratio (interference)      1
4       CC(C)(C)c1ccc(S(=O)(=O)/C=C/C#N)cc1  fluorescence ratio (interference)    0.9
5   O=C(O)CCc1ccc(NCc2cccc(Oc3ccccc3)c2)cc1  fluorescence ratio (interference)      1

Then this compound:
[ask] Return fluorescence ratio (interference) for the following compound: C=CCN1CCc2cc(O)c(O)cc2C(c2ccccc2)C1 (stereo unspecified)
[reply] 0.9
